# Species on record: Homo sapiens
# ASSAY NAME: Inhibition of tau protein (unknown origin) expressed in Escherichia coli BL21 (DE3) at 10 uM incubated for 24 hrs by microplate reader assay relative to control
List of inhibition values.

{"MOL SMILES": "O=S(=O)(c1ccccc1)n1ccc2c(OCCNCCNCc3ccccc3)cccc21", "inhibition / %": 58.1}
{"MOL SMILES": "O=S(=O)(c1ccccc1)n1ccc2c(OCCNCCNCc3ccc(F)cc3)cccc21", "inhibition / %": 58}
{"MOL SMILES": "O=S(=O)(c1ccccc1)n1ccc2c(OCCNCCNCc3cccc(C(F)(F)F)c3)cccc21", "inhibition / %": 79.4}
{"MOL SMILES": "COc1ccc(CNCCNCCOc2cccc3c2ccn3S(=O)(=O)c2ccccc2)cc1", "inhibition / %": 64}
{"MOL SMILES": "O=[N+]([O-])c1ccc(CNCCNCCOc2cccc3c2ccn3S(=O)(=O)c2ccccc2)cc1", "inhibition / %": 62.3}
{"MOL SMILES": "O=S(=O)(c1ccccc1)n1ccc2c(OCCNCCCCCNCc3ccccc3)cccc21", "inhibition / %": 51.7}
{"MOL SMILES": "O=S(=O)(c1ccccc1)n1ccc2c(OCCNCCNCc3cccc(Cl)c3)cccc21", "inhibition / %": 57.5}
{"MOL SMILES": "Cc1cccc(CNCCNCCOc2cccc3c2ccn3S(=O)(=O)c2ccccc2)c1", "inhibition / %": 58.8}
{"MOL SMILES": "O=S(=O)(c1ccccc1)n1ccc2c(OCCNCCNCc3ccccc3Cl)cccc21", "inhibition / %": 53.5}
{"MOL SMILES": "O=S(=O)(c1ccccc1)n1ccc2c(OCCNCCNCc3cc(Cl)cc(Cl)c3)cccc21", "inhibition / %": 62.3}
{"MOL SMILES": "CCN(C)C(=O)Oc1cccc(CNCCNCCOc2cccc3c2ccn3S(=O)(=O)c2ccccc2)c1", "inhibition / %": 68.7}
{"MOL SMILES": "O=S(=O)(c1ccccc1)n1ccc2c(OCCNCCNCc3ccc(Cl)cc3)cccc21", "inhibition / %": 58.2}

----------
As shown below, each of these molecules has a reported Ki value.
# TARGET SYSTEM: 5-hydroxytryptamine receptor 6 (Homo sapiens)
# Sequence (P50406 whole entry): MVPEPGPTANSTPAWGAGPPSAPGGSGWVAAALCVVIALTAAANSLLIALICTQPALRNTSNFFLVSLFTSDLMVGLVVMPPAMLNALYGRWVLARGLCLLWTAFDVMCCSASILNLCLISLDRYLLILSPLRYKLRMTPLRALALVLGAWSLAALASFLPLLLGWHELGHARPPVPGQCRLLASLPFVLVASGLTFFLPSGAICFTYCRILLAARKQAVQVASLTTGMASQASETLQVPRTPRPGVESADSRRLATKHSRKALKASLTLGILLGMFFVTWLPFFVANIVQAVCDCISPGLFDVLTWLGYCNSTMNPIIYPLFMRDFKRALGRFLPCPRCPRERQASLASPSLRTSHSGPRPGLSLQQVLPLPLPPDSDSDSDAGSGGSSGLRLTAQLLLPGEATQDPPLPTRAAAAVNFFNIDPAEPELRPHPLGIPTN

{"MOL SMILES": "O=S(=O)(c1ccccc1)n1ccc2c(OCCNCCNCc3cccc(Cl)c3)cccc21", "TARGET SYSTEM": "5-hydroxytryptamine receptor 6 (Homo sapiens)", "Ki": "2 nM"}
{"MOL SMILES": "O=S(=O)(c1ccccc1)n1ccc2c(OCCNCCCNCc3ccccc3)cccc21", "TARGET SYSTEM": "5-hydroxytryptamine receptor 6 (Homo sapiens)", "Ki": "8 nM"}
{"MOL SMILES": "O=S(=O)(c1ccccc1)n1ccc2c(OCCNCCCCCNCc3ccccc3)cccc21", "TARGET SYSTEM": "5-hydroxytryptamine receptor 6 (Homo sapiens)", "Ki": "12 nM"}
{"MOL SMILES": "O=S(=O)(c1ccccc1)n1ccc2c(OCCNCCCCNc3c4c(nc5ccccc35)CCCC4)cccc21", "TARGET SYSTEM": "5-hydroxytryptamine receptor 6 (Homo sapiens)", "Ki": "3.5 nM"}
{"MOL SMILES": "O=S(=O)(c1ccccc1)n1ccc2c(OCCNCCNCc3cc(Cl)cc(Cl)c3)cccc21", "TARGET SYSTEM": "5-hydroxytryptamine receptor 6 (Homo sapiens)", "Ki": "11 nM"}
